Known pIC50 of a selection of compounds
STUDY TARGET: 20S Human Erythrocyte Proteasome (HEP) (Homo sapiens, UniProt P20618+P28074)
Construct: 20S Human Erythrocyte Proteasome (HEP), purchased from Immatics Biotechnologies Inc
ASSAY DETAILS: Chymotrypsin-like activity of 20S Human Erythrocyte Proteasome (HEP), IC50 determination
EXPERIMENTAL PARAMETERS: assay of Example C, inhibition of HEP
pIC50: −log10 of the molar value.

Below, each entry is followed by its recorded pIC50 result.
CCCCCCCCCC(=O)N[C@@H](CCCNC(N)=O)C(=O)N[C@@H](CC(C)C)B(O)O | > 8.00
CC(=O)N1CCC[C@H]1C(=O)N[C@@H](CCCNC(=N)N[N+](=O)[O-])C(=O)N[C@@H](CC(C)C)B(O)O | > 7.00

Q) Query: pIC50; subject: CC(C)C[C@H](NC(=O)[C@H](CCCNC(=N)N[N+](=O)[O-])NC(=O)CC1C=CCC1)B1O[C@@H]2C[C@@H]3C[C@@H](C3(C)C)[C@]2(C)O1 (mixture of isomers)
A) > 8.00
